Measured values drawn from the supplement of paper PMC8728848 for this set.

# SYSTEM_TESTED: GlcA(b1-3)Gal
# METHOD_SUMMARY: glycan array binding signal (z-score within array); higher = stronger binding
# CONDITION_SUMMARY: glycan notation: IUPAC condensed, linker removed
The entries come from a sample that favours the strongest signals as a whole.
Reported glycan array binding signal (z-score) values for the following binders.
Provide a numeric answer; units are not to be included.

Example results:
MLTim-4 (Mus musculus), Q6U7R4 (protein) MSKGLLLLWLVTELWWLYLTPAASEDTIIGFLGQPVTLPCHYLSWSQSRNSMCWGKGSCPNSKCNAELLRTDGTRIISRKSTKYTLLGKVQFGEVSLTISNTNRGDSGVYCCRIEVPGWFNDVKKNVRLELRRAT
6.6
Gal 4 (Mus musculus), P56470 (protein) MAYVPAPGYQPTYNPTLPYYQPIPGGLNVGMSVYIQGVASEHMKRFFVNFVVGQDPGSDVAFHFNPRFDGWDKVVFNTLQGGKWGSEERKRSMPFKKGAAFELVFIVLAEHYKVVVNGNPFYEYGHRLPLQMVTHLQVDGDLQLQSINFIGGQPLRPQGPPMMPPYPGPGHCHQQLNSLPTMEGPPTFNPPVPYFGRLQGGLTARRTIIIKGYVPPTGKSFAINFKVGSSGDIALHINPRMGNGTVVRNSLLNGSWGSEEKKITHNPFGPGQFFDLSIRCGLDRFKVYANGQHLFDFAHRLSAFQRVDTLEIQGDVTLSYVQI
-0.24

Next, consider the following binder.
Qu. // returns reported glycan array binding signal (z-score) for input Calsepa (Calystegia sepium), P93114 (protein) MAVPMDTISGPWGNNGGNFWSFRPVNKINQIVISYGGGGNNPIALTFSSTKADGSKDTITVGGGGPDSITGTEMVNIGTDEYLTGISGTFGIYLDNNVLRSITFTTNLKAHGPYGQKVGTPFSSANVVGNEIVGFLGRSGYYVDAIGTYNRHK
Ans. -0.244
